The reader will find reported GI50 values listed item by item below.
System: NCI-H322M
Experiment: Cytotoxicity against human NCI-H322M cells by SRB assay
Type: functional
measure: GI50 (µM)

INSERT INTO measurements (smiles_representation, value_units, endpoint_value) VALUES
  ('CC(=O)OC[C@H]1O[C@@H](O[C@@H]2C[C@H]3C(C)(C)[C@H](OC(C)=O)CC[C@]3(C)[C@H]3CC[C@@]45C[C@H](O)C[C@H](C)[C@@H]4CC=C5[C@@]32C)[C@H](O)[C@@H](O)[C@@H]1O', 'µM', 6.61),
  ('CC(=O)OC[C@H]1O[C@@H](O[C@@H]2C[C@H]3C(C)(C)[C@H](OC(C)=O)CC[C@]3(C)[C@H]3CC[C@@H]4[C@]5(CC[C@@]4(C)[C@@]32C)O[C@@H]([C@H](O)C(C)(C)O)C[C@@H]5C)[C@H](O)[C@@H](O)[C@@H]1O', 'µM', 1.7),
  ('C=C(C)[C@@H](O)[C@H](O)C[C@H](C)[C@@H]1CC[C@]2(C)C1=CC[C@@H]1[C@@]3(C)CC[C@@H](OC(C)=O)C(C)(C)[C@@H]3C[C@@H](O[C@@H]3O[C@H](COC(C)=O)[C@@H](O)[C@H](O)[C@H]3O)[C@]12C', 'µM', 1.86),
  ('C=C1[C@@H](O)C[C@@]23CC[C@@H]4[C@@]5(C)CC[C@@H](OC(C)=O)C(C)(C)[C@@H]5C[C@@H](O[C@@H]5O[C@H](COC(C)=O)[C@@H](O)[C@H](O)[C@H]5O)[C@@]4(C)C2=CC[C@H]3[C@H]1C', 'µM', 12.9),
  ('COC(C)(C)[C@@H](O)[C@H](O)C[C@H](C)C1=C2CC[C@@H]3[C@@]4(C)CC[C@@H](OC(C)=O)C(C)(C)[C@@H]4C[C@@H](O[C@@H]4O[C@H](COC(C)=O)[C@@H](O)[C@H](O)[C@H]4O)[C@@]3(C)[C@]2(C)CC1', 'µM', 12.9);

---

Test system: SW-620
Assay: Cytotoxicity against human SW620 cells by SRB assay
Assay type: functional
Reported GI50 values are given for each entry in this list.
measure: GI50 (µM)

INSERT INTO measurements (smiles_representation, endpoint_value) VALUES
  ('CC(=O)OC[C@H]1O[C@@H](O[C@@H]2C[C@H]3C(C)(C)[C@H](OC(C)=O)CC[C@]3(C)[C@H]3CC[C@@]45C[C@H](O)C[C@H](C)[C@@H]4CC=C5[C@@]32C)[C@H](O)[C@@H](O)[C@@H]1O', 4.57),
  ('COC(C)(C)[C@@H](O)[C@H](O)C[C@H](C)C1=C2CC[C@@H]3[C@@]4(C)CC[C@@H](OC(C)=O)C(C)(C)[C@@H]4C[C@@H](O[C@@H]4O[C@H](COC(C)=O)[C@@H](O)[C@H](O)[C@H]4O)[C@@]3(C)[C@]2(C)CC1', 15.8);

---

Catalogue of GI50 values
Test system: IGROV-1
Test: Cytotoxicity against human IGROV1 cells by SRB assay
Format: functional
measure: GI50

INSERT INTO results (smiles_representation, endpoint_value) VALUES
  ('CC(=O)OC[C@H]1O[C@@H](O[C@@H]2C[C@H]3C(C)(C)[C@H](OC(C)=O)CC[C@]3(C)[C@H]3CC[C@@]45C[C@H](O)C[C@H](C)[C@@H]4CC=C5[C@@]32C)[C@H](O)[C@@H](O)[C@@H]1O', '3.16 µM'),
  ('C=C(C)[C@@H](O)[C@H](O)C[C@H](C)[C@@H]1CC[C@]2(C)C1=CC[C@@H]1[C@@]3(C)CC[C@@H](OC(C)=O)C(C)(C)[C@@H]3C[C@@H](O[C@@H]3O[C@H](COC(C)=O)[C@@H](O)[C@H](O)[C@H]3O)[C@]12C', '2.34 µM'),
  ('C=C1[C@@H](O)C[C@@]23CC[C@@H]4[C@@]5(C)CC[C@@H](OC(C)=O)C(C)(C)[C@@H]5C[C@@H](O[C@@H]5O[C@H](COC(C)=O)[C@@H](O)[C@H](O)[C@H]5O)[C@@]4(C)C2=CC[C@H]3[C@H]1C', '4.79 µM'),
  ('COC(C)(C)[C@@H](O)[C@H](O)C[C@H](C)C1=C2CC[C@@H]3[C@@]4(C)CC[C@@H](OC(C)=O)C(C)(C)[C@@H]4C[C@@H](O[C@@H]4O[C@H](COC(C)=O)[C@@H](O)[C@H](O)[C@H]4O)[C@@]3(C)[C@]2(C)CC1', '13.2 µM'),
  ('CC(=O)OC[C@H]1O[C@@H](O[C@@H]2C[C@H]3C(C)(C)[C@H](OC(C)=O)CC[C@]3(C)[C@H]3CC[C@@H]4[C@]5(CC[C@@]4(C)[C@@]32C)O[C@@H]([C@H](O)C(C)(C)O)C[C@@H]5C)[C@H](O)[C@@H](O)[C@@H]1O', '9.55 µM'),
  ('CC(=O)OC[C@H]1O[C@@H](O[C@@H]2C[C@H]3C(C)(C)[C@H](OC(C)=O)CC[C@]3(C)[C@H]3CCC4=C([C@@H](C)C[C@@H](O)[C@H](O)C(C)(C)O)CC[C@@]4(C)[C@@]32C)[C@H](O)[C@@H](O)[C@@H]1O', '16.2 µM'),
  ('COC(C)(C)[C@@H](O)[C@H]1C[C@H](C)[C@@]2(CC[C@]3(C)[C@@H]2CC[C@@H]2[C@@]4(C)CC[C@@H](OC(C)=O)C(C)(C)[C@@H]4C[C@@H](O[C@@H]4O[C@H](COC(C)=O)[C@@H](O)[C@H](O)[C@H]4O)[C@]23C)O1', '4.37 µM');

Source of measurements: ChEMBL document CHEMBL1158870
